Hello, the source for this data is patent US5668152A, in case you need it.

# STUDY_SYSTEM: protein kinase C gamma (Homo sapiens, UniProt P05129)
# RUN_DESCRIPTION: PKC Enzyme assay, gamma isozyme
# Format: biochemical
# STUDY_CONDITIONS: PKC gamma; 30 μM ATP, 30° C., 10 minutes; read-out: IC50 γ
# Description: PKC enzymes=alpha, beta I, beta II, gamma, delta, epsilon, eta and zeta. Assay components in a total volume of 250 μL are the following: […]
OBSERVED_PROPERTY: pIC50
Notebook: values listed as pIC50 are -log10 of the concentration (mol/L).

Item: CCN1CCC(n2cc(C3=C(c4cn(C)c5ccccc45)C(=O)NC3=O)c3ccccc32)CC1 [Example 40] | pIC50: 6.52

So for Cn1cc(C2=C(c3cn(CCCCOC4C[C@H](O)[C@@H](CO)O4)c4ccccc34)C(=O)NC2=O)c2ccccc21 (some centres unmarked) [Example 56] , the logged pIC50 turned out to be 5.49

Notebook: Cn1cc(C2=C(c3cn(CCOC4C[C@H](N)[C@@H](CO)O4)c4ccccc34)C(=O)NC2=O)c2ccccc21 (some centres unmarked) [Example 63] , pIC50 read as 5.40

Looking up CC(=O)NCC1OC(OCCCCn2cc(C3=C(c4cn(C)c5ccccc45)C(=O)NC3=O)c3ccccc32)CC1OC(C)=O (centres unmarked) [Example 55] , I found its pIC50 recorded as 5.38

The reported pIC50 of the molecule Cc1c(C2=C(c3c(C)n(CN(C)C)c4ccccc34)C(=O)NC2=O)c2ccccc2n1CCCN(C)C [Example 16] was 5.04

pIC50 reported for this molecule Cn1cc(C2=C(c3c4n(c5ccccc35)CCC(CO)(CO)C4)C(=O)NC2=O)c2ccccc21 [Example 2] : 5.06

Briefly, pIC50 measured for O=C1NC(=O)C(c2cn(CCCO)c3ccccc23)=C1c1c[nH]c2ccccc12 [Example 11] : 5.96

Lab note: measured pIC50 of Cn1cc(C2=C(c3cn(CCOC4C[C@H](N=[N+]=[N-])[C@@H](CO)O4)c4ccccc34)C(=O)NC2=O)c2ccccc21 (some centres unmarked) [Example 61] was 5.32

Recorded pIC50 (molecule CC(=O)NCC1OC(OCCCCn2cc(C3=C(c4cn(C)c5ccccc45)C(=O)N(C(C)=O)C3=O)c3ccccc32)CC1OC(C)=O (centres unmarked) [Example 70] ): 5.52

The molecule listed as Cn1cc(C2=C(c3cn(CCOC4C[C@@H](N=[N+]=[N-])[C@@H](CO)O4)c4ccccc34)C(=O)NC2=O)c2ccccc21 (some centres unmarked) [Example 62] has a reported pIC50 of 5.28

Sure, the documented pIC50 for Cn1cc(C2=C(c3cn(CCOC4O[C@H](CO)[C@@H](O)[C@@H](N)[C@H]4O)c4ccccc34)C(=O)NC2=O)c2ccccc21 (some centres unmarked) [Example 67] is 5.09

Looking up Cn1cc(C2=C(c3cn(CCO[C@@H]4C[C@H](O)[C@@H](CN=[N+]=[N-])O4)c4ccccc34)C(=O)NC2=O)c2ccccc21 [Example 58] , I found its pIC50 recorded as 4.42

Entry CN1CCC(Cn2cc(C3=C(c4cn(C)c5ccccc45)C(=O)NC3=O)c3ccccc32)CC1 [Example 68] ; pIC50 = 5.62

Measured pIC50, Cn1cc(C2=C(c3cn(C4CCOC4)c4ccccc34)C(=O)NC2=O)c2ccccc21 (centres unmarked) [Example 64] : 6.55
